Species: Oryctolagus cuniculus
Measurement Protocol: Inhibition of Endothelin-1 induced contractions in rabbit carotid artery rings.
Type: functional
Consider the following partition of reported Kb into named classes: low value = under 50 nM, medium value = from 50 nM up to 200 nM, high value = 200 nM and over

Hi there! Could you help me figure out the category for Cc1nc(-c2ccc(-c3ccccc3S(=O)(=O)Nc3onc(C)c3C)cc2)oc1C please?
high value

Which bin, given its Kb, does Cc1cnc(-c2ccc(-c3ccccc3S(=O)(=O)Nc3onc(C)c3C)cc2)o1 occupy?
medium value

Please classify: Cc1noc(NS(=O)(=O)c2ccccc2-c2ccc(-c3cnco3)cc2)c1C
medium value

Which category does the recorded Kb put Cc1noc(NS(=O)(=O)c2ccccc2-c2ccc(Cc3ncco3)cc2)c1C in?
high value

Kindly state the category for this compound: Cc1nc(-c2ccc(-c3ccccc3S(=O)(=O)Nc3onc(C)c3C)cc2)co1
high value

Input Cc1noc(NS(=O)(=O)c2ccccc2-c2ccc(-c3cocn3)cc2)c1C ; output its category
low value

Please report the category associated with Cc1coc(-c2ccc(-c3ccccc3S(=O)(=O)Nc3onc(C)c3C)cc2)n1 , nothing else.
low value

Lab log: Cc1noc(NS(=O)(=O)c2ccccc2-c2ccc(-c3ncoc3C)cc2)c1C — assign Kb category
low value

Note: place this compound into its band. Item: Cc1noc(NS(=O)(=O)c2ccccc2-c2ccc(CC(C)C)cc2)c1C
high value

----------
Tested System: Endothelin receptor type B (Homo sapiens, UniProt P24530)
Sequence (P24530 whole entry): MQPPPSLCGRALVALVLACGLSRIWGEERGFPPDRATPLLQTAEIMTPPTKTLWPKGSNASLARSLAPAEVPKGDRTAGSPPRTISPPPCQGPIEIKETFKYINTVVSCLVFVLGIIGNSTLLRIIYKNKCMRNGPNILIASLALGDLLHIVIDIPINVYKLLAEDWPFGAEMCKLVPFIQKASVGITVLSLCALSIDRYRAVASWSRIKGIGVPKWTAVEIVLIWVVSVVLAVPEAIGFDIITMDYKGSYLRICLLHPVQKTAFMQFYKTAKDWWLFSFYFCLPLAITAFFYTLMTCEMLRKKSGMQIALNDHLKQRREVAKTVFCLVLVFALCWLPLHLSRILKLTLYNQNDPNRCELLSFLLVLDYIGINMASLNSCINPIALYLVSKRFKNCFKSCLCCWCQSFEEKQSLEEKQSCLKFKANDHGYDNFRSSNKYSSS
Endpoint Label: pKi
Answer as the number alone; pKi is minus log10 of concentration in mol/L.

Look up pKi with Endothelin receptor type B (Homo sapiens, UniProt P24530) for this molecule: Cc1nc(-c2ccc(-c3ccccc3S(=O)(=O)Nc3onc(C)c3C)cc2)oc1C
4.92

Endothelin receptor type B (Homo sapiens, UniProt P24530) / pKi / Cc1cnc(-c2ccc(-c3ccccc3S(=O)(=O)Nc3onc(C)c3C)cc2)o1 : value?
4.92

I'm curious: which pKi was measured for Cc1noc(NS(=O)(=O)c2ccccc2-c2ccc(CC(C)C)cc2)c1C tested on Endothelin receptor type B (Homo sapiens, UniProt P24530)?
5.77

For the record Cc1noc(NS(=O)(=O)c2ccccc2-c2ccc(Cc3ncco3)cc2)c1C , what value of pKi is listed for Endothelin receptor type B (Homo sapiens, UniProt P24530)?
4.47

Identify the measured pKi of Cc1coc(-c2ccc(-c3ccccc3S(=O)(=O)Nc3onc(C)c3C)cc2)n1 for Endothelin receptor type B (Homo sapiens, UniProt P24530).
4.00

Reported pKi for Endothelin receptor type B (Homo sapiens, UniProt P24530), given Cc1noc(NS(=O)(=O)c2ccccc2-c2ccc(-c3nc4ccccc4o3)cc2)c1C ?
4.03

----------
Provide the recorded Ki for the entries that follow.
Target protein (sequence): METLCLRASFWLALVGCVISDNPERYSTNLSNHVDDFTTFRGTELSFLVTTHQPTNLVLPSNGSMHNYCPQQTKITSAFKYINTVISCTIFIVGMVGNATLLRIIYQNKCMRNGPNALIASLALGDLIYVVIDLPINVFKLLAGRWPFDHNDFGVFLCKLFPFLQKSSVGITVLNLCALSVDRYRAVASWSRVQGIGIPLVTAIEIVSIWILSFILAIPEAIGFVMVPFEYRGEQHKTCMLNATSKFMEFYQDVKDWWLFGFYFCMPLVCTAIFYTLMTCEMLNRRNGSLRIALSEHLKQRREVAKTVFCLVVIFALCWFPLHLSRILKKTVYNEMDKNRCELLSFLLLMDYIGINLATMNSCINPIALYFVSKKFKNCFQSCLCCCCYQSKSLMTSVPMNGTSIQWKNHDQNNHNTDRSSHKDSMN
Express it in nM; write the number only.

I would be grateful if you could share the reported Ki for Cc1noc(NS(=O)(=O)c2ccccc2-c2ccc(CC(C)C)cc2)c1C .
18

# Ki lookup, item Cc1nc(-c2ccc(-c3ccccc3S(=O)(=O)Nc3onc(C)c3C)cc2)oc1C
16

So what's the measured Ki for this one? Cc1noc(NS(=O)(=O)c2ccccc2-c2ccc(Cc3ncco3)cc2)c1C
19

Which value of Ki has been reported for Cc1noc(NS(=O)(=O)c2ccccc2-c2ccc(-c3ncoc3C)cc2)c1C in the records?
4.7

May I ask what Ki has been recorded for Cc1noc(NS(=O)(=O)c2ccccc2-c2ccc(CC(C)C)cc2N)c1C ?
4.7

Query (compound): Cc1coc(-c2ccc(-c3ccccc3S(=O)(=O)Nc3onc(C)c3C)cc2)n1 ; field requested: Ki
2

# query: Ki of entry Cc1cnc(-c2ccc(-c3ccccc3S(=O)(=O)Nc3onc(C)c3C)cc2)o1
11

For Cc1noc(NS(=O)(=O)c2ccccc2-c2ccc(-c3cnco3)cc2)c1C , what is its reported Ki?
3.7
